Hi there, I'd appreciate the recorded z-score for every entry that follows.
- test.method.notes: A549 cell viability effects, profiling panel, calcein-AM fluorescence, 48 h, basal (AID 1162); also: test concentration not given here
- test.parameters: higher = more signal
Answers are plain numbers.

Consider the following illustrative entries.
CCOC(=O)C=C1C[C@@H](c2cccc([N+](=O)[O-])c2)O[C@@H](c2cccc([N+](=O)[O-])c2)O1; -0.865
O=C1C2C=CC(C(O)c3ccccn3)N(Nc3ccc([N+](=O)[O-])cc3)C2C(=O)N1c1ccccc1 (stereo not drawn); -0.264
OCCCc1cc[n+](Cc2cc3c(cc2Br)OCO3)cc1; -0.322

Can you give me z-score for all of these, one by one?
1. [N-]=[N+]=NCc1ccccc1[C@H]1OC(c2ccc(OCCCO)cc2)=N[C@@]1(Cc1ccccc1N=[N+]=[N-])C(N)=O
2. C[C@H]1C2[C@H](Cc3ccccc3)NC(=O)[C@]23C(=O)N[C@@H](Cc2ccccc2)C(=O)N2CCC[C@H]2C(=O)NC/C=C/CC/C=C/C3[C@@H]2O[C@]12C (stereo partly drawn)
3. COc1ccc(CCNC(=O)[C@@H]2c3ccccc3C(=O)N(Cc3cc(F)cc(C(F)(F)F)c3)[C@H]2c2ccc(CO)cc2)cc1
4. CCOC(=O)C1=CCC(c2cccn2C(=O)OC(C)(C)C)N(S(=O)(=O)c2ccc(C)cc2)C1 (stereo not drawn)
5. O=C1NC(=O)C2C1C=CC(C(O)C(O)CO)N2Nc1ccccn1 (stereo not drawn)

-0.0372
-0.168
2.41
-0.982
0.159

Recorded values, source PubChem BioAssay.
